# method summary: Dog PK study #1 (Compound A IV and PO, propylene glycol formulation)
# Format: in vivo, beagle dogs
# measurement context: beagle, dog, plasma, po, 5 mg/kg, oral 5 mg/kg, 0.25 h; individual animals; read-out: Plasma concentration
test readout: concentration at 0.25 h (ng/mL)
Output spec: scalar in ng/mL, unitless text.

Consider the compound Cn1cc(-c2ccccc2)c(-c2cn(C)c(=O)c3[nH]c(-c4cnn(C(F)(F)F)c4)cc23)cc1=O and give its measured concentration at 0.25 h.
25.1

====

# method summary: Dog PK study #1 (Compound A IV and PO, propylene glycol formulation)
# Format: in vivo, beagle dogs
# measurement context: beagle, dog, plasma, iv, 1 mg/kg, IV 1 mg/kg; individual animals; read-out: C0
test readout: C0 (ng/mL)
Output spec: scalar in ng/mL, unitless text.

Consider the compound Cn1cc(-c2ccccc2)c(-c2cn(C)c(=O)c3[nH]c(-c4cnn(C(F)(F)F)c4)cc23)cc1=O and give its measured C0.
1690

====

# measured target: BRD4 BD2 (Homo sapiens, UniProt O60885)
# Construct: HEK293 cells were transfected using NanoLuc-BRD4-BD1 or NanoLuc-BRD4-BD2 fusion vectors
# method summary: NanoBRET bromodomain assay, NanoLuc-BRD4-BD2 in HEK293 cells
# Assay type: binding
# measurement context: nanoBRET assay; given as symbol only; lower number denotes higher potency
# Protocol: Plates were then incubated at 37° C.+5% CO2 incubator for 2 hours. Fold Selectivity Calculated (IC50 BD1/IC50 BD2).

structure notation: COCCn1cc(-c2ccccc2)c(-c2cn(C)c(=O)c3[nH]c(-c4cnn(C(F)(F)F)c4)cc23)cc1=O
BD2: ≤
--
structure notation: CSCCn1cc(-c2ccccc2)c(-c2cn(C)c(=O)c3[nH]c(-c4cnn(C(F)(F)F)c4)cc23)cc1=O
BD2: <
--
structure notation: Cn1cc(-c2ccccc2)c(-c2cn(C)c(=O)c3[nH]c(-c4cnn(C(F)(F)F)c4)c(F)c23)cc1=O
BD2: <
--
structure notation: Cn1cc(-c2ccccc2)c(-c2cn(C)c(=O)c3[nH]c(-c4cnn(C(F)(F)F)c4)cc23)cc1=O
BD2: <

====

# method summary: Rat PK study #3 (ABBV-744 IV 1 mg/kg and PO 5 mg/kg)
# Type: in vivo, SD rats
# measurement context: male, Sprague-Dawley, rat, plasma, iv, 1 mg/kg, SD rats, IV 1 mg/kg, DMSO/PEG-400/Milli-Q water formulation, 4 h, mean of 3 animals
test readout: concentration at 4 h (ng/mL)
Output spec: scalar in ng/mL, unitless text.

Consider the molecule CCNC(=O)c1cc2c(-c3cc(C(C)(C)O)ccc3Oc3c(C)cc(F)cc3C)cn(C)c(=O)c2[nH]1 [ABBV-744] and give its measured concentration at 4 h.
52.9

====

# method summary: Rat PK study #3 (ABBV-744 IV 1 mg/kg and PO 5 mg/kg)
# Type: in vivo, SD rats
# measurement context: male, Sprague-Dawley, rat, plasma, po, 5 mg/kg, SD rats, PO 5 mg/kg, DMSO/PEG-400/Milli-Q water formulation, individual animals; read-out: Tmax
test readout: Tmax (h)
Output spec: scalar in h, unitless text.

Consider the compound CCNC(=O)c1cc2c(-c3cc(C(C)(C)O)ccc3Oc3c(C)cc(F)cc3C)cn(C)c(=O)c2[nH]1 and give its measured Tmax.
8

====

# method summary: Dog PK study #3 (Compound A PO once daily 5 days, 5/10/20 mg/kg; PK, body weight, hematology)
# Assay type: in vivo, beagle dogs
# measurement context: male, beagle, dog, plasma, po, 10 mg/kg, Day 5, 10 mg/kg dose PO; mean; read-out: T½ (converted)
test readout: half-life (h)
Output spec: scalar in h, unitless text.

Consider the compound Cn1cc(-c2ccccc2)c(-c2cn(C)c(=O)c3[nH]c(-c4cnn(C(F)(F)F)c4)cc23)cc1=O and give its measured half-life.
8.8

====

# method summary: Dog PK study #4 (Compound A PO daily 14 days, 1/3/10 mg/kg; toxicokinetics, platelet counts)
# Format: in vivo, beagle dogs
# measurement context: beagle, dog, plasma, oral; after daily administration for 14 days, 1 mg/kg, Male, 8 h
# Protocol: The different doses of compound A were orally administered to animals (n=2/group, one male and one female animal) daily for 14 days. Blood samples were collected at 0.5, 1, 2, 4, 8, and 24 hours after administration of Compound A on Day 14, and EDTA-K2 was used as an anticoagulant. […] The concentration of Compound A in the blood plasma was determined through liquid chromatography-mass spectrometry (LC-MS). […]
test readout: concentration at 8 h (ng/mL)
Output spec: scalar in ng/mL, unitless text.

Consider the compound Cn1cc(-c2ccccc2)c(-c2cn(C)c(=O)c3[nH]c(-c4cnn(C(F)(F)F)c4)cc23)cc1=O and give its measured concentration at 8 h.
24.5

====

# method summary: Dog PK study #3 (Compound A PO once daily 5 days, 5/10/20 mg/kg; PK, body weight, hematology)
# Assay type: in vivo, beagle dogs
# measurement context: male, beagle, dog, plasma, po, 5 mg/kg, Day 1, 5 mg/kg dose PO; individual animals; read-out: AUC0-inf
test readout: AUC(0-inf) (ng·h/mL)
Output spec: scalar in ng·h/mL, unitless text.

Consider the compound Cn1cc(-c2ccccc2)c(-c2cn(C)c(=O)c3[nH]c(-c4cnn(C(F)(F)F)c4)cc23)cc1=O and give its measured AUC(0-inf).
7880

====

# method summary: CIA study: pharmacokinetics / plasma concentration after oral administration
# Assay type: in vivo, Lewis rats
# measurement context: Lewis, rat, plasma, po, 3 mg/kg, CIA-induced animals, day 21, 3 mg/kg, individual test subjects; read-out: Cmax
test readout: Cmax (ng/mL)
Output spec: scalar in ng/mL, unitless text.

Consider the compound Cn1cc(-c2ccccc2)c(-c2cn(C)c(=O)c3[nH]c(-c4cnn(C(F)(F)F)c4)cc23)cc1=O [Compound A] and give its measured Cmax.
48.3

====

# method summary: Dog PK study #3 (Compound A PO once daily 5 days, 5/10/20 mg/kg; PK, body weight, hematology)
# Assay type: in vivo, beagle dogs
# measurement context: male, beagle, dog, plasma, po, 5 mg/kg, Day 5, 5 mg/kg dose PO; mean; read-out: T½ (converted)
test readout: half-life (h)
Output spec: scalar in h, unitless text.

Consider the compound Cn1cc(-c2ccccc2)c(-c2cn(C)c(=O)c3[nH]c(-c4cnn(C(F)(F)F)c4)cc23)cc1=O and give its measured half-life.
9.96

====

# method summary: Rat PK study #1 (Compound A PO, methylcellulose vs propylene glycol formulation)
# Assay type: in vivo, Lewis rats
# measurement context: male, Lewis, rat, plasma, po, 10 mg/kg, Lewis rats, PO 10 mg/kg, 1% methylcellulose formulation, 8 h, mean of 3 animals
test readout: concentration at 8 h (ng/mL)
Output spec: scalar in ng/mL, unitless text.

Consider the compound Cn1cc(-c2ccccc2)c(-c2cn(C)c(=O)c3[nH]c(-c4cnn(C(F)(F)F)c4)cc23)cc1=O and give its measured concentration at 8 h.
49.1

====

# method summary: Rat PK study #4 (Compound A PO 0.2 and 1.0 mg/kg, propylene glycol formulation)
# Assay type: in vivo, Lewis rats
# measurement context: male, Lewis, rat, plasma, po, 1 mg/kg, 1 mg/kg PO, propylene glycol-based formulation; mean
test readout: half-life (h)
Output spec: scalar in h, unitless text.

Consider the compound Cn1cc(-c2ccccc2)c(-c2cn(C)c(=O)c3[nH]c(-c4cnn(C(F)(F)F)c4)cc23)cc1=O [Compound A] and give its measured half-life.
7.24

====

# method summary: Rat PK study #4 (Compound A PO 0.2 and 1.0 mg/kg, propylene glycol formulation)
# Assay type: in vivo, Lewis rats
# measurement context: male, Lewis, rat, plasma, po, 1 mg/kg, 1 mg/kg PO, propylene glycol-based formulation; mean
# Method: For the fourth rat pharmacokinetic study, the pharmacokinetics of Compound A were assessed in male Lewis rats. […] The Compound A solutions were administered to animals orally (PO) and animals were then monitored over a 24 h period. […] The concentration of Compound A in plasma samples was determined by liquid chromatography-mass spectrometry (LC-MS/MS) using a Shimadzu HPLC (DGU-20A5R; LC-30AD; SIL-30AC; Rack changer II; CTO-30A; and CBM-20A) and an AB API 5500+LC/MS/MS instrument. […]
test readout: AUC(0-inf)

Consider the compound Cn1cc(-c2ccccc2)c(-c2cn(C)c(=O)c3[nH]c(-c4cnn(C(F)(F)F)c4)cc23)cc1=O and give its measured AUC(0-inf).
335 ng·h/mL

====

# method summary: Dog PK study #2 (Compound A IV, HPBCD formulation)
# Type: in vivo, beagle dogs
# measurement context: beagle, dog, plasma, iv, 1 mg/kg, IV 1 mg/kg, HPBCD formulation, 0.25 h; mean; read-out: Average plasma concentration
test readout: concentration at 0.25 h (ng/mL)
Output spec: scalar in ng/mL, unitless text.

Consider the compound Cn1cc(-c2ccccc2)c(-c2cn(C)c(=O)c3[nH]c(-c4cnn(C(F)(F)F)c4)cc23)cc1=O [Compound A] and give its measured concentration at 0.25 h.
450
